- Test System: Mu-type opioid receptor (Rattus norvegicus, UniProt P33535)
- Sequence (P33535 whole entry): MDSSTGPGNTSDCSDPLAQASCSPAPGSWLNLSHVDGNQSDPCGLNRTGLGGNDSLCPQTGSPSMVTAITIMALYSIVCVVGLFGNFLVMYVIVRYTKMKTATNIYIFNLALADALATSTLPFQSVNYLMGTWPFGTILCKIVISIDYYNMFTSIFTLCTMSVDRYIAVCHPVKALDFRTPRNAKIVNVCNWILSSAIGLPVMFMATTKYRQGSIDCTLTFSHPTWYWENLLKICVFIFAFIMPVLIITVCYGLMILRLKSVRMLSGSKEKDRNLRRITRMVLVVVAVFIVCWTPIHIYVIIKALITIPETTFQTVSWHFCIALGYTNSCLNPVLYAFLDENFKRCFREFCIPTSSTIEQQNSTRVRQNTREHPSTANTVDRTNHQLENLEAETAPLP
- Assay Explanation: Displacement of [3H]DAMGO from mu opioid receptor in rat brain by liquid scintillation counting
- Format: tissue-based
Readout: pIC50
# log scale: pIC50 equals minus log10 of the concentration in mol/L

Exercise: // Input: "CNC[C@H](Cc1ccc(O)cc1)NC[C@H](Cc1ccc(O)cc1)NCCC1CCCC1" . Output its pIC50 only.
Solution: 6.77

Continuing:
Exercise: // Input: "CCC[C@H](CNC)NC[C@H](Cc1ccc(O)cc1)NCC1CCCCCC1" . Output its pIC50 only.
Solution: 6.97

---

Reported values of log10 of IC50 for individual entries
- Test System: Kappa-type opioid receptor (Cavia porcellus, UniProt P41144)
- Sequence (P41144 whole entry): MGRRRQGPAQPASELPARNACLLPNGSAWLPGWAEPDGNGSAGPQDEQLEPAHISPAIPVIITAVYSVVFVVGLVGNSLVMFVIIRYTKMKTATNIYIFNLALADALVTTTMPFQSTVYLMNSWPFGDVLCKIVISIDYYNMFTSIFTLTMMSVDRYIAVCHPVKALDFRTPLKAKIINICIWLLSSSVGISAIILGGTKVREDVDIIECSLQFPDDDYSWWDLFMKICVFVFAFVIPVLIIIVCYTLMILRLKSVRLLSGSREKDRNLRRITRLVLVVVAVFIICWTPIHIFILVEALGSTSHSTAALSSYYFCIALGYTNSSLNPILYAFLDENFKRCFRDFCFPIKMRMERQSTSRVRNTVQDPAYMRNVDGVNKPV
- Assay Explanation: Displacement of [3H]U69593 from guinea pig kappa opioid receptor by liquid scintillation counting
Answers are given as log10 of IC50 in nM.

Exercise: Recall the reported log10 of IC50 of CNC[C@H](Cc1ccc(O)cc1)NC[C@H](Cc1ccc(O)cc1)NCC1CCC(C)CC1 (some centres not stated) when tested on Kappa-type opioid receptor (Cavia porcellus, UniProt P41144).
Solution: 2.01

Exercise: Recall the reported log10 of IC50 of "CCC[C@H](CN[C@H](CNC)Cc1ccc(O)cc1)NCCC1CCCC1" when tested on Kappa-type opioid receptor (Cavia porcellus, UniProt P41144).
Solution: 1.99

Exercise: Recall the reported log10 of IC50 of "CNC[C@@H](Cc1ccc(O)cc1)N1CCN(CC2CCCCCC2)CC1" when tested on Kappa-type opioid receptor (Cavia porcellus, UniProt P41144).
Solution: 2.35

Exercise: Recall the reported log10 of IC50 of "CCC[C@H](CNC)NC[C@@H](CCC)NCCC1CCCC1" when tested on Kappa-type opioid receptor (Cavia porcellus, UniProt P41144).
Solution: 2.01

Exercise: Recall the reported log10 of IC50 of CNC[C@H](Cc1ccc(O)cc1)N1CCN(CCC2CC3CCC2C3)[C@@H](C(C)C)C1 (some centres not stated) when tested on Kappa-type opioid receptor (Cavia porcellus, UniProt P41144).
Solution: 2.57

Exercise: Recall the reported log10 of IC50 of CCC[C@H](CN[C@H](CNC)Cc1ccc(O)cc1)NCCC1CC2CCC1C2 (some centres not stated) when tested on Kappa-type opioid receptor (Cavia porcellus, UniProt P41144).
Solution: 1.23

Exercise: Recall the reported log10 of IC50 of "CCC[C@H](CNC)NC[C@H](Cc1ccc(O)cc1)NCC1CCCCCC1" when tested on Kappa-type opioid receptor (Cavia porcellus, UniProt P41144).
Solution: 2.64

Exercise: Recall the reported log10 of IC50 of "CCC[C@H](CN[C@H](CNC)Cc1ccc(O)cc1)NCCC12CC3CC(CC(C3)C1)C2" when tested on Kappa-type opioid receptor (Cavia porcellus, UniProt P41144).
Solution: 1.57

Exercise: Recall the reported log10 of IC50 of CCC[C@H](CNC)NC[C@H](Cc1ccc(O)cc1)NCCC1CC2CCC1C2 (some centres not stated) when tested on Kappa-type opioid receptor (Cavia porcellus, UniProt P41144).
Solution: 2.52

Exercise: Recall the reported log10 of IC50 of CCC[C@H](CNC)NC[C@H](Cc1ccc(O)cc1)NCC1CCC(C)CC1 (some centres not stated) when tested on Kappa-type opioid receptor (Cavia porcellus, UniProt P41144).
Solution: 3.24

Exercise: Recall the reported log10 of IC50 of "CNC[C@@H](Cc1ccc(O)cc1)N1CCN(CCCC2CCCCC2)[C@H](C(C)C)C1" when tested on Kappa-type opioid receptor (Cavia porcellus, UniProt P41144).
Solution: 2.82

Exercise: Recall the reported log10 of IC50 of "CC[C@H](C)[C@@H](CNC)N1CCN(CCCC2CCCCC2)[C@H](C(C)C)C1" when tested on Kappa-type opioid receptor (Cavia porcellus, UniProt P41144).
Solution: 1.76

Exercise: Recall the reported log10 of IC50 of CCC(C)[C@@H](CNC)N1CCN(CCC23CC4CC(CC(C4)C2)C3)[C@H](C(C)C)C1 (some centres not stated) when tested on Kappa-type opioid receptor (Cavia porcellus, UniProt P41144).
Solution: 2.08

Exercise: Recall the reported log10 of IC50 of CNC[C@H](Cc1ccc(O)cc1)N1CCN(CCC2CC3CCC2C3)CC1 (some centres not stated) when tested on Kappa-type opioid receptor (Cavia porcellus, UniProt P41144).
Solution: 2.57

Exercise: Recall the reported log10 of IC50 of CCC[C@H](CN[C@H](CNC)Cc1ccc(O)cc1)NCC1CCC(C)CC1 (some centres not stated) when tested on Kappa-type opioid receptor (Cavia porcellus, UniProt P41144).
Solution: 1.15

Exercise: Recall the reported log10 of IC50 of CNC[C@H](Cc1ccc(O)cc1)NC[C@H](Cc1ccc(O)cc1)NCCC1CC2CCC1C2 (some centres not stated) when tested on Kappa-type opioid receptor (Cavia porcellus, UniProt P41144).
Solution: 2.66

Exercise: Recall the reported log10 of IC50 of "CNC[C@H](Cc1ccc(O)cc1)NC[C@H](Cc1ccc(O)cc1)NCC1CCCCCC1" when tested on Kappa-type opioid receptor (Cavia porcellus, UniProt P41144).
Solution: 1.34

Exercise: Recall the reported log10 of IC50 of "CC(C)(C)CCN1CCN([C@@H](CNCc2ccccc2)Cc2ccc(O)cc2)C[C@@H]1Cc1ccc(O)cc1" when tested on Kappa-type opioid receptor (Cavia porcellus, UniProt P41144).
Solution: 2.59

Exercise: Recall the reported log10 of IC50 of "CCCC[C@H](CNCc1ccccc1)N1CCN(CC(C)C)[C@H](Cc2ccc(O)cc2)C1" when tested on Kappa-type opioid receptor (Cavia porcellus, UniProt P41144).
Solution: 2.01

Exercise: Recall the reported log10 of IC50 of CNC[C@@H](Cc1ccc(O)cc1)N1CCN(CCC2CC3CCC2C3)CC1 (some centres not stated) when tested on Kappa-type opioid receptor (Cavia porcellus, UniProt P41144).
Solution: 2.68

Exercise: Recall the reported log10 of IC50 of "CCC[C@H](CNC)NC[C@H](Cc1ccc(O)cc1)NCCC1CCCC1" when tested on Kappa-type opioid receptor (Cavia porcellus, UniProt P41144).
Solution: 2.88

Exercise: Recall the reported log10 of IC50 of CNC[C@@H](Cc1ccc(O)cc1)N1CCN(CCC2CC3CCC2C3)[C@H](C(C)C)C1 (some centres not stated) when tested on Kappa-type opioid receptor (Cavia porcellus, UniProt P41144).
Solution: 2.36
